B1: Formin-binding protein 4, residues 593 to 636; numbered along this chain, Q8N3X1 (parent)
chain: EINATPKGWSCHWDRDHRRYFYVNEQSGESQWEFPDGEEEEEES

- Variants of: B1
- PROTOCOL: abundance fitness (aPCA) (normalised: wild type 0, dead -1); higher = more abundant; growth selection in yeast, the domain comes from the species named
- MEASUREMENT SETUP: Homo sapiens
RECORDED ENDPOINT: abundance fitness
Could you respond with only the numeric value?

# annotated cases, reported abundance fitness shown
{"columns": ["MUTANT CODE", "abundance fitness"],
 "data": [
  ["E39N", 0.052],
  ["G28W", -1.14],
  ["N3A", -0.177],
  ["Q26R", -0.085],
  ["E25H", -0.251],
  ["S27W", -1.52],
  ["F34S", -0.282],
  ["K7A", -0.079]
]}

# return recorded abundance fitness for input `A4R` -0.01

Please list abundance fitness recorded for the variant `S10Q` -0.183

Tell me measured abundance fitness for `F21T` please. -0.111

Find the measured abundance fitness of `T5W` and report it. -0.19

Write down abundance fitness measured for item `Q31C` -0.129
